biological target: Induced myeloid leukemia cell differentiation protein Mcl-1 (Homo sapiens) (UniProt Q07820); assay: MCL1-BIM peptide interaction disruptors – biochemical, fluorescence polarization, primary screen (AID 2057); settings: GST-MCL1 / FITC-Bim-BH3 fluorescence polarization; at 10.9 µM; active compounds read high;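 also: 0% = DMSO wells and 100% = unlabeled Bim-BH3 peptide control; higher means more loss of mP so more displacement of Bim peptide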
Sequence (Q07820 whole entry, looked up): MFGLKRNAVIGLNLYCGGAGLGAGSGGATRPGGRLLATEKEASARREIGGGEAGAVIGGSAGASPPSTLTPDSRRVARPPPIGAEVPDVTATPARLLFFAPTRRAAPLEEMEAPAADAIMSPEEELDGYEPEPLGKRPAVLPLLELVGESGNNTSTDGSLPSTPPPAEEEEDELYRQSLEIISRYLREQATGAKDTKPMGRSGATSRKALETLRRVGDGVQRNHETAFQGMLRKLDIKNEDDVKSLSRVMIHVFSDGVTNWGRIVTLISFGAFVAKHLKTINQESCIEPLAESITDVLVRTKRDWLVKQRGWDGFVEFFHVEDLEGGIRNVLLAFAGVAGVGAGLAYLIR
The campaign covered roughly 320,000 compounds. About 2,100 (0.66%) were called active. This is one part of a sample in which actives are shown more often than they occur.
property: inhibition (%)
Answers are plain numbers, in %.

record.smiles	reading.unit	observed.measurement
COc1cccc(NC(=S)N(CCc2c(C)[nH]c3ccccc23)Cc2ccco2)c1	%	4.2
Cc1[nH]c2ccccc2c1CCN(Cc1cccs1)C(=S)NC(C)(C)C	%	7.74
CCOc1ccc(NC(=O)CN(C)C(=O)Cn2c(=O)cnc3ccccc32)cc1OCC	%	3.26
O=C(C1CCC1)N1CCN(S(=O)(=O)c2ccc([N+](=O)[O-])cc2)CC1	%	-7.38

Dear colleague, I am looking for the recorded inhibition of the following compound: CSc1c(SCc2ccccc2)cnn(Cc2ccccc2)c1=O
181

----------
Would you mind telling me the reported inhibition of each entry?
target: Induced myeloid leukemia cell differentiation protein Mcl-1 (Homo sapiens) (UniProt Q07820); test: MCL1-BIM peptide interaction disruptors – biochemical, fluorescence polarization, primary screen (AID 2057); conditions: GST-MCL1 / FITC-Bim-BH3 fluorescence polarization; at 10.9 µM; active compounds read high
About 2,100 (0.66%) of roughly 320,000 compounds were called active. What follows is part of a selection rich in actives, with near analogues and random picks from the rest.
One number for each entry, in %.

Examples with answers:
compound	property	observed.measurement
CCc1ccc(-c2cc(C)no2)cc1S(=O)(=O)NCCc1ccc(S(N)(=O)=O)cc1	inhibition	7.69
C=CCn1c(=S)[nH]c2scc(-c3ccco3)c2c1=O	inhibition	67.4
CCN1CCN(CC(=O)c2cc(OC)c(OC)c(OC)c2)CC1	inhibition	0.87
COC(=O)/C=C\C(=O)Nc1cccc([N+](=O)[O-])c1	inhibition	2.27
CC(C)(C)c1ccc(/C=C2\Oc3c(ccc(O)c3CN3CCN(CCO)CC3)C2=O)cc1	inhibition	49.7

Each compound below has a recorded value; state its inhibition.
1. O=C(C1=C(O)C(=O)N(Cc2ccccc2)C1c1cccnc1)c1ccco1 (configuration not stated)
2. O=C(C1=C(O)C(=O)N(Cc2ccccc2)C1c1ccco1)c1ccco1 (configuration not stated)
3. C[N+](C)(CCCCCC[N+](C)(C)CCCN1C(=O)c2cccc3cccc(c23)C1=O)CCCN1C(=O)c2cccc3cccc(c23)C1=O
4. CCOC(=O)c1oc2c(CN3CCN(CCO)CC3)c(O)c(CC)cc2c(=O)c1-c1nc2ccccc2s1
5. Cc1nn(-c2cc(Cl)ccc2N)c(=O)c2ccccc12

[2.72, 4.91, -10.5, -0.61, 0.14]

Give inhibition for each listed item.
1. CCCC1OC23CCCCC2C(C#N)(C#N)C1(C#N)C(=N)O3 (configuration not stated)
2. CC(C)c1ccc2oc(=O)cc(CN3CCN(Cc4ccccc4)CC3)c2c1
3. O=c1[nH]c2ccc(S(=O)(=O)N3CCCC3)cc2[nH]1
4. O=C(O)c1ccc2c3c(cccc13)C(=O)N(OS(=O)(=O)c1ccccc1)C2=O
5. CC(=O)N1CCC(C(=O)OCc2ccc(Cl)cc2)(c2ccccc2)CC1
6. Cc1cc(-c2nnc(SCC(=O)Nc3ccc(S(N)(=O)=O)cc3)n2N)n[nH]1
7. O=c1[nH]c(-c2ccccc2)c(-c2ccccc2)[nH]1

1. 95.8
2. -0.09
3. 5.45
4. -8.23
5. 7.68
6. -7.81
7. 1.68

----------
molecular target: Induced myeloid leukemia cell differentiation protein Mcl-1 (Homo sapiens) (UniProt Q07820); experiment: MCL1-BIM peptide interaction disruptors – biochemical, fluorescence polarization, primary screen (AID 2057); conditions: GST-MCL1 / FITC-Bim-BH3 fluorescence polarization; at 10.9 µM
Screen size: about 320,000 compounds; about 2,100 (0.66%) were called active.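 Rule for the calls: active = inhibition above the mean inhibition of all tested compounds plus 3 SD, set per campaign (cut at about 40% in these data); inactive = the rest.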 Many of the other results were omitted from the sample, so actives are more common in it than they were.
// one of active, inactive, no free text

compound	class.name
COC(=O)CCCC1=CC2=CC(=O)C(C)(OC(=O)c3cccs3)C(=O)C2=CN1CC1CC1 (centres undefined)	inactive

Please indicate how the test categorized CC1=NN(C(C)C)C(=O)C1 .
inactive

Would you mind doing O=C(COC(=O)c1ncc(Cl)c(Cl)c1Cl)NC1CCS(=O)(=O)C1 (centres undefined) as well?
inactive

Input CC(=O)N1CCN(C(=O)c2cc(-c3ccc(C)o3)nc3ccccc23)CC1
inactive

Follow-up item: CCC1SC2=NCCN2C1(O)c1ccc(Cl)cc1 (centres undefined)
inactive

Another compound to check: COCCn1c(SCC(=O)Nc2nc(C)cs2)nnc1C(C)C
inactive

Subsequent entry: O=C(CN1CCN(S(=O)(=O)c2ccc(Cl)s2)CC1)N1CCCCC1
inactive

----------
Give measured inhibition for each item. Keep answers brief.
biological target: Induced myeloid leukemia cell differentiation protein Mcl-1 (Homo sapiens) (UniProt Q07820); test: MCL1-BIM peptide interaction disruptors – biochemical, fluorescence polarization, primary screen (AID 2057); conditions: GST-MCL1 / FITC-Bim-BH3 fluorescence polarization; at 10.9 µM; active compounds read high;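 also: 0% = DMSO wells and 100% = unlabeled Bim-BH3 peptide control; higher means more loss of mP so more displacement of Bim peptide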
The whole screen tested about 320,000 compounds, of which about 2,100 (0.66%) were called active. What follows is part of a selection rich in actives, with near analogues and random picks from the rest.
Numbers only, in %.

// worked examples, inhibition included
compound	reading.unit	inhibition
O=C(C/C(=N\NC(=O)c1ccccc1Br)C(F)(F)F)c1cccs1	%	12.5
CCCC1NC(=O)NC(C)=C1C(=O)OCC (configuration not stated)	%	-0.76
Oc1cc2c(cc1O)CN(C(=S)NCCc1ccc(Cl)cc1)CCC2	%	34.4
Cc1cc(NC(=O)CSc2nc3c(cc2C#N)CCCCC3)no1	%	2.25
O=c1[nH]c(N2CCOCC2)nc2ccccc12	%	2.38
CC[N+](C)(CC)CCC[n+]1c(-c2ccccc2)c2cc(N)ccc2c2ccc(N)cc21	%	122

Please give inhibition for each item listed below.
1. O=C(NN1C(=O)C2C(C1=O)C1C=CC2C12CC2)c1ccccc1Cl (configuration not stated)
2. CSc1ccccc1-c1nnc(-c2ccc(Cl)cc2)o1
3. CCCCn1c(N)c(N(CCOC)C(=O)c2sc3ccccc3c2Cl)c(=O)[nH]c1=O
4. COc1ccc(Cl)cc1C(=O)OCC(=O)NCc1cccs1
5. COc1ccccc1NC(=O)C[n+]1ccccc1
6. Fc1ccc(CNc2nc3ccccc3n3nnnc23)cc1
7. O=C(OCC1OC(Oc2ccc(O)cc2)C(O)C(O)C1O)c1ccccc1 (configuration not stated)

1: 1.2; 2: -2.22; 3: -3.09; 4: -2.56; 5: -1.7; 6: 60.1; 7: -1.58

----------
biological target: Induced myeloid leukemia cell differentiation protein Mcl-1 (Homo sapiens); test: MCL1-BIM peptide interaction disruptors – biochemical, fluorescence polarization, primary screen (AID 2057); details: GST-MCL1 / FITC-Bim-BH3 fluorescence polarization; at 10.9 µM; active compounds read high;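 also: 0% = DMSO wells and 100% = unlabeled Bim-BH3 peptide control; higher means more loss of mP so more displacement of Bim peptide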
In all, about 320,000 compounds went through this assay and about 2,100 (0.66%) were called active. Shown is part of a subset that was picked to be rich in actives.
property: inhibition (%)
Give bare numbers, in %.

Recorded results for 4 molecules are shown here.
molecule	target.of.assay	reading.unit	observed.measurement
Cc1ccc2nnn(Cc3cccc(C(C)(C)C)c3O)c2c1	Induced myeloid leukemia cell differentiation protein Mcl-1 (Homo sapiens)	%	-0.36
Cc1cccc(-c2c(NC(=O)c3ccco3)oc3ccc(Cl)cc3c2=O)c1	Induced myeloid leukemia cell differentiation protein Mcl-1 (Homo sapiens)	%	-4.25
COC(=O)C1=C(C)Nc2ncnn2C1c1ccco1 (stereo not drawn)	Induced myeloid leukemia cell differentiation protein Mcl-1 (Homo sapiens)	%	9.97
Fc1cccc(Cl)c1CSc1ccc(-c2ccco2)nn1	Induced myeloid leukemia cell differentiation protein Mcl-1 (Homo sapiens)	%	17.6

Required: inhibition, one value per molecule below.
1. Clc1ccccc1CSc1nnc(-c2ccco2)c(-c2ccco2)n1
2. COCc1cc(=O)n2[nH]c(C)c(-c3ccccc3)c2n1
3. CCN(CC)CCNC(=O)c1sc2ncn(CC(=O)Nc3ccc(C)c(Cl)c3)c(=O)c2c1C

79.9
10.3
-4.53

----------
target: Induced myeloid leukemia cell differentiation protein Mcl-1 (Homo sapiens) (UniProt Q07820); experiment: MCL1-BIM peptide interaction disruptors – biochemical, fluorescence polarization, primary screen (AID 2057); conditions: GST-MCL1 / FITC-Bim-BH3 fluorescence polarization; at 10.9 µM;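 also: 0% = DMSO wells and 100% = unlabeled Bim-BH3 peptide control; higher means more loss of mP so more displacement of Bim peptide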
In all, about 320,000 compounds went through this assay and about 2,100 (0.66%) were called active.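 Rule for the calls: active = inhibition above the mean inhibition of all tested compounds plus 3 SD, set per campaign (cut at about 40% in these data); inactive = the rest.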 The full list was thinned out, with actives kept by preference.
Returns: one label drawn from y for active, n for inactive

Answered examples (4):
compound	class.name
Cc1c(C)c2ccc(OCC(=O)N3CCC(C(=O)O)CC3)c(C)c2oc1=O	n
OCC1(Cc2ccccc2C(F)(F)F)CCN(Cc2ccncc2)CC1	n
O=C1N[C@@H](Cc2ccccc2)C(=O)N2[C@@H]3N(S(=O)(=O)c4ccc(F)cc4)c4ccccc4[C@]3(Br)C[C@@H]12	n
CCCC[C@@H]1CN=C(N)N1CCc1cc(C(F)(F)F)cc(C(F)(F)F)c1	n

With those in mind, consider the next compound.
What did this assay record as the result for Cc1c(CC(=O)N2CCN(C(=O)C3COc4ccccc4O3)CC2)c(=O)oc2c(O)c(O)ccc12 (stereo not given) ?
y
